Biological target: Neuronal acetylcholine receptor; alpha3/beta4 (Homo sapiens, UniProt P30926+P32297)
Experiment: Agonist activity at human alpha3beta4 nAChR expressed in CHO cells assessed as calcium flux by calcium4-based FLIPR assay relative to nicotine
Type: functional, cell-based
Field 'label' (enum: yes / no). Set to yes when Emax is strictly under 50%; else no.

For orientation, consider the following solved cases.
- compound: "O=C(c1ccc(Cl)o1)N1C[C@H]2CN[C@@H](C2)C1"
  qualitative.label: "no"
- compound: "O=C(C1CC1)N1CC2CNC(C2)C1 (stereo not drawn)"
  qualitative.label: "no"
- compound: "O=C(c1ccoc1)N1CC2CNCC2C1 (stereo not drawn)"
  qualitative.label: "yes"

Input line: For this compound, is Emax lower than 50%? COc1ccc(C(=O)N2CC3CNCC(C3)C2)cc1
Output line: yes

Input line: For this compound, is Emax lower than 50%? N#Cc1ccoc1C(=O)N1CC2CNCC(C2)C1
Output line: yes

Input line: For this compound, is Emax lower than 50%? O=C(c1occc1F)N1CC2CNCC2C1 (stereo not drawn)
Output line: yes

Input line: For this compound, is Emax lower than 50%? O=C(c1ccc(Br)o1)N1C[C@@H]2CN[C@H](C2)C1
Output line: no

Input line: For this compound, is Emax lower than 50%? N#Cc1ccc(C(=O)N2CC3CNCC3C2)o1 (stereo not drawn)
Output line: yes

Input line: For this compound, is Emax lower than 50%? O=C(c1ccncc1)N1CC2CNC(C2)C1 (stereo not drawn)
Output line: no

Input line: For this compound, is Emax lower than 50%? O=C(c1occc1Cl)N1CC2CNCC2C1 (stereo not drawn)
Output line: no

Input line: For this compound, is Emax lower than 50%? O=C(c1occc1Br)N1CC2CNCC(C2)C1
Output line: yes

Input line: For this compound, is Emax lower than 50%? O=C(c1cccnc1)N1CC2CNCC2C1 (stereo not drawn)
Output line: no

Input line: For this compound, is Emax lower than 50%? O=C(c1ccc(F)o1)N1C[C@@H]2CN[C@H](C2)C1
Output line: no

Input line: For this compound, is Emax lower than 50%? O=C(c1ccccc1)N1CC2CNCC2C1 (stereo not drawn)
Output line: yes

Input line: For this compound, is Emax lower than 50%? O=C(c1ccc(Br)o1)N1C[C@H]2CN[C@@H](C2)C1
Output line: yes

Input line: For this compound, is Emax lower than 50%? O=C(c1ccco1)N1C[C@@H]2CN[C@H](C2)C1
Output line: no

Input line: For this compound, is Emax lower than 50%? O=C(c1ccncc1)N1CC2CNCC2C1 (stereo not drawn)
Output line: yes

====

Target: Neuronal acetylcholine receptor; alpha4/beta2 (Homo sapiens, UniProt P17787+P43681)
Sequence (P17787 whole entry): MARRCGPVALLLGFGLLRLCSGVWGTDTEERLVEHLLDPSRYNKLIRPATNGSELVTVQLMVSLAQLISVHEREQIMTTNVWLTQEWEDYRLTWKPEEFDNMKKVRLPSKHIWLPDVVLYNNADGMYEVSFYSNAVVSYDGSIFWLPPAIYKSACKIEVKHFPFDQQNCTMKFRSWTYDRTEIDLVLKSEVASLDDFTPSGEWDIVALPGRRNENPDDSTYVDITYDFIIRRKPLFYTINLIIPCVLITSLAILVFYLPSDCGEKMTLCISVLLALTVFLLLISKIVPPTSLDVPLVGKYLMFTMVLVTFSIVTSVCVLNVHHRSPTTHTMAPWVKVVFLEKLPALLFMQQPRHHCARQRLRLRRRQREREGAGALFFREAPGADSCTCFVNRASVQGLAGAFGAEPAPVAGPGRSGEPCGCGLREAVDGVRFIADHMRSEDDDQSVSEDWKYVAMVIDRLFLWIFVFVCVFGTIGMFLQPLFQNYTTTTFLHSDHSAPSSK
Sequence (P43681 whole entry): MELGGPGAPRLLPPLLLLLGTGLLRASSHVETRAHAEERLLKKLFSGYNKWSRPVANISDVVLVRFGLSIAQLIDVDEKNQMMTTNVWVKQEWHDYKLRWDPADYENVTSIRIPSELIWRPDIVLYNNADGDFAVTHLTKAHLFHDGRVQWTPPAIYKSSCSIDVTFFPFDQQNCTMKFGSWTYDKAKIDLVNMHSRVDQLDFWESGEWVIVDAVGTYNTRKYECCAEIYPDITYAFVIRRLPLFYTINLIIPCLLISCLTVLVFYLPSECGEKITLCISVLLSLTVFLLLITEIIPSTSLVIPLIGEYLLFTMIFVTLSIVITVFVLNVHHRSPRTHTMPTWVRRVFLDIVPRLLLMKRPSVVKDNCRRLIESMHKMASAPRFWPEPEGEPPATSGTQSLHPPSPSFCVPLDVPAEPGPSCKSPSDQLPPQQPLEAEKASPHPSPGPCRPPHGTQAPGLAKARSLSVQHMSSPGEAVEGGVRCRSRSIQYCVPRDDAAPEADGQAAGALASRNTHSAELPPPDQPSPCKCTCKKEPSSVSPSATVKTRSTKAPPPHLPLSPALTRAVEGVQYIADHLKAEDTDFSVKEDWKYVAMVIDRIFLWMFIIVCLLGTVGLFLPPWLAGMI
Assay: Displacement of [3H]nicotine from alpha4beta2 nAChR in human SH-EP1 cells after 2 hrs by liquid scintillation assay
Type: cell-based
readout: pKi
When answering, recall that pKi equals minus log10 of the concentration in mol/L, and write that number alone.

Here's what some known entries look like.
- compound: "O=C(c1occc1Cl)N1CC2CNCC(C2)C1"
  pKi: 7.82
- compound: "Cc1ccc(C(=O)N2CC3CNCC3C2)o1 (stereo not drawn)"
  pKi: 7.38
- compound: "Cc1ccoc1C(=O)N1CC2CNCC2C1 (stereo not drawn)"
  pKi: 7.49
- compound: "O=C(c1ccccc1)N1CC2CNCC(C2)C1"
  pKi: 6.04
- compound: "O=C(c1ccc(Cl)o1)N1CC2CNCC2C1 (stereo not drawn) [AZD1446]"
  pKi: 7.52
- compound: "O=C(C1CC1)N1CC2CNCC2C1 (stereo not drawn)"
  pKi: 8.40

Input line: Retrieve pKi measured for N#Cc1ccc(C(=O)N2CC3CNCC3C2)o1 (stereo not drawn) and print it.
Output line: 7.28

Input line: Retrieve pKi measured for N#Cc1coc(C(=O)N2CC3CNCC(C3)C2)c1 and print it.
Output line: 7.48
